target: Thromboxane A2 receptor (Homo sapiens) (UniProt P21731); assay: Thromboxane A2 receptor binding affinity was evaluated, which is expressed as competition factor (CF = (IC50-test) / (IC50-standard)
Sequence (P21731 whole entry): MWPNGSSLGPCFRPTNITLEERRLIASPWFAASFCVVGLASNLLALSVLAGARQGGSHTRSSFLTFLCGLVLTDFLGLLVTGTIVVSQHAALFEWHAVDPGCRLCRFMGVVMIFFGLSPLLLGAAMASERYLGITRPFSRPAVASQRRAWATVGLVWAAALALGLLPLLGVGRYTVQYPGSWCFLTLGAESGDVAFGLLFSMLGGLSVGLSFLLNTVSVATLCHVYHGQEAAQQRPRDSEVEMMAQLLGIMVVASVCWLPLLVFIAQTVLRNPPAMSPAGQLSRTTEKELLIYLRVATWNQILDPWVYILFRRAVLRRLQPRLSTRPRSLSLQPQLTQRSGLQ
READOUT LABEL: CF
Format: numeric value only, no unit, no commentary.

Problem: Annotate the compound O=C(O)CC/C=C\C[C@@H]1[C@@H](CNS(=O)(=O)c2ccc(F)cc2)CC[C@H]1F (stereo in doubt; form 2) with its measured CF.
Solution: 300

Problem: Output CF of "Cc1ccc(S(=O)(=O)N[C@H]2CCC=C2C/C=C\CCCC(=O)O)cc1"
Solution: 1.5

Problem: Give reported CF value for "O=C(O)CCCCCCC1=CCC[C@@H]1NS(=O)(=O)c1ccc(F)cc1"
Solution: 2.7

Problem: Read off the recorded CF for "O=C(O)COCCCC[C@H]1[C@H](F)CC[C@@H]1NS(=O)(=O)c1ccc(Cl)cc1"
Solution: 0.8

Problem: Please give the documented CF of "O=C(O)CCC/C=C\CC1=CCC[C@@H]1NS(=O)(=O)c1ccc(Cl)cc1"
Solution: 0.3

Problem: Answer with reported CF of "O=C(O)COCCCC[C@H]1[C@H](F)CC[C@@H]1NS(=O)(=O)c1ccccc1[N+](=O)[O-]"
Solution: 330

Problem: // Input: "O=C(O)COCCCCC1=CCC[C@@H]1NS(=O)(=O)c1ccc(F)cc1" . Output its CF only.
Solution: 13

Problem: # return recorded CF for entry "O=C(O)CCC/C=C\CC1=CCC[C@@H]1NS(=O)(=O)c1ccc2ccccc2c1"
Solution: 0.3

Problem: Item "Cc1ccc(S(=O)(=O)N[C@H]2CCC=C2CCCCOCC(=O)O)cc1" : provide CF
Solution: 11

Problem: Please give the documented CF of "O=C(O)CCC/C=C\C[C@H]1[C@H](F)CC[C@@H]1NS(=O)(=O)c1ccc(F)cc1"
Solution: 1.5

Problem: Please indicate CF recorded for "O=C(O)CCC/C=C\C[C@H]1[C@H](F)CC[C@@H]1NS(=O)(=O)c1ccccc1"
Solution: 4

Problem: # return recorded CF for entry "O=C(O)CC/C=C\C[C@H]1[C@H](F)CC[C@@H]1NS(=O)(=O)c1ccc(F)cc1"
Solution: 4.3

Problem: Recall and state the measured CF for "O=C(O)CC/C=C\C[C@H]1[C@H](F)CC[C@@H]1NS(=O)(=O)c1ccc(Cl)cc1" .
Solution: 1.3

Problem: Quickly give me recorded CF for "O=C(O)CCC/C=C\C[C@H]1[C@H](F)CC[C@@H]1NS(=O)(=O)c1ccc2ccccc2c1"
Solution: 0.3

Problem: For the compound "Cc1ccc(S(=O)(=O)NC[C@H]2CC[C@@H](F)[C@@H]2C/C=C\CCC(=O)O)cc1" , give its measured CF value.
Solution: 154

Problem: Determine its reported CF: "O=C(O)COCCCCC1=CCC[C@@H]1NS(=O)(=O)c1ccc(Cl)c(Cl)c1"
Solution: 7.6

Problem: Supply CF value. Item: "O=C(O)CCC/C=C\CC1=CCC[C@@H]1NS(=O)(=O)c1ccccc1"
Solution: 3.5

Problem: Read the entry "O=C(O)CCC/C=C\C[C@@H]1[C@@H](CNS(=O)(=O)c2ccc(F)cc2)CC[C@H]1F" and write its reported CF.
Solution: 50

Problem: Indicate the recorded CF value for this compound: "O=C(O)CCC/C=C\CC1=CCC[C@@H]1NS(=O)(=O)c1ccccc1[N+](=O)[O-]"
Solution: 6.6

Problem: Give CF for the following compound: "O=C(O)CCC/C=C\CC1=CCC[C@@H]1CNS(=O)(=O)c1ccc(F)cc1"
Solution: 17

Problem: Identify the reported CF for the following entry. "O=C(O)CC/C=C\CC1=CCC[C@@H]1NS(=O)(=O)c1ccc(Cl)cc1"
Solution: 2.8

Problem: Provide only the value of recorded CF for "O=C(O)CC/C=C\C[C@H]1[C@H](F)CC[C@@H]1NS(=O)(=O)c1ccccc1"
Solution: 10

Problem: Determine its reported CF: "O=C(O)CC/C=C\CC1=CCC[C@@H]1CNS(=O)(=O)c1ccc(F)cc1"
Solution: 21

Problem: Specify measured CF for "O=C(O)CCC/C=C\CC1=CCC[C@@H]1NS(=O)(=O)c1ccc(Cl)c(Cl)c1" .
Solution: 1.1

Problem: Tell me measured CF for "O=C(O)CCCCCC[C@@H]1[C@@H](CNS(=O)(=O)c2ccc(F)cc2)CC[C@H]1F" please.
Solution: 260

Problem: Indicate the recorded CF value for this compound: "O=C(O)CCC/C=C\C[C@H]1[C@H](F)CC[C@@H]1NS(=O)(=O)c1cccc2cccnc12"
Solution: 340

Problem: Report CF for "O=C(O)CCCCCC[C@H]1[C@H](F)CC[C@@H]1NS(=O)(=O)c1ccc(F)cc1"
Solution: 7.5

Problem: Read off the recorded CF for O=C(O)CCC/C=C\CC1=CCC[C@@H]1NS(=O)(=O)c1ccc(F)cc1 (stereo in doubt; 3d)
Solution: 1.5

Problem: Provide one value: measured CF of "Cc1ccc(S(=O)(=O)N[C@H]2CC[C@@H](F)[C@@H]2C/C=C\CCCC(=O)O)cc1"
Solution: 1.5

Problem: Supply recorded CF for "O=C(O)CCCCC[C@@H]1[C@@H](CNS(=O)(=O)c2ccc(F)cc2)CC[C@H]1F" here.
Solution: 380
